Every entry's value here was drawn from ChEMBL document CHEMBL3352514.

test system: TK-10; assay: Growth inhibition of human TK10 cells; type: functional
Reported GI50 values are given for each entry in this list.
Write down the numeric answer in µM and omit the unit.

Consider the reported GI50 for these compounds:
{"columns": ["Compound", "Study target", "GI50, µM"],
 "data": [
  ["C=C1C(=O)O[C@H]2[C@H]1CC/C(COC(=O)NCCN1CCOCC1)=C\\CC[C@@]1(C)O[C@@H]21", "TK-10", 3.93],
  ["C/C1=C\\CC[C@@]2(C)O[C@@H]2[C@H]2OC(=O)C(CN(C)C)[C@@H]2CC1 (stereo partly specified) [DIMETHYLAMINOPARTHENOLIDE]", "TK-10", 3.16],
  ["C=C1C(=O)O[C@H]2[C@H]1CC/C(COC(=O)NCCc1ccccn1)=C\\CC[C@@]1(C)O[C@@H]21", "TK-10", 3.78]
]}

// field: GI50; key: C=C1C(=O)O[C@H]2[C@H]1CC/C(COC(=O)Nc1n[nH]c(SC)n1)=C\CC[C@@]1(C)O[C@@H]21 ; value = 2.51

Field GI50 (entry C=C1C(=O)O[C@H]2[C@H]1CC/C(COC(=O)N1CCC(F)(F)CC1)=C\CC[C@@]1(C)O[C@@H]21 ) reads 2.6

Note to self: GI50 recorded for C=C1C(=O)O[C@H]2[C@H]1CC/C(COC(=O)NCCN1CCCC1)=C\CC[C@@]1(C)O[C@@H]21 was 3.11
